biological target: muscarinic receptor (Cavia porcellus, UniProt H0W1Z3); construct: Smooth muscle strips of the urinary bladder were dissected in a Krebs-Henseleit solution; from tissue; host or cells: guinea pig urinary bladder smooth muscle strips; assay: Functional in vitro studies: antagonism of carbachol-induced contraction of urinary bladder smooth muscle strips; assay type: cell-based, guinea pig; details: male guinea pig urinary bladder strips; carbachol agonist; 60 min incubation with antagonist; Krebs-Henseleit pH 7.4, 37° C.; KB from dose ratios (Schild); read-out: KB-value
Sequence (H0W1Z3 1-590): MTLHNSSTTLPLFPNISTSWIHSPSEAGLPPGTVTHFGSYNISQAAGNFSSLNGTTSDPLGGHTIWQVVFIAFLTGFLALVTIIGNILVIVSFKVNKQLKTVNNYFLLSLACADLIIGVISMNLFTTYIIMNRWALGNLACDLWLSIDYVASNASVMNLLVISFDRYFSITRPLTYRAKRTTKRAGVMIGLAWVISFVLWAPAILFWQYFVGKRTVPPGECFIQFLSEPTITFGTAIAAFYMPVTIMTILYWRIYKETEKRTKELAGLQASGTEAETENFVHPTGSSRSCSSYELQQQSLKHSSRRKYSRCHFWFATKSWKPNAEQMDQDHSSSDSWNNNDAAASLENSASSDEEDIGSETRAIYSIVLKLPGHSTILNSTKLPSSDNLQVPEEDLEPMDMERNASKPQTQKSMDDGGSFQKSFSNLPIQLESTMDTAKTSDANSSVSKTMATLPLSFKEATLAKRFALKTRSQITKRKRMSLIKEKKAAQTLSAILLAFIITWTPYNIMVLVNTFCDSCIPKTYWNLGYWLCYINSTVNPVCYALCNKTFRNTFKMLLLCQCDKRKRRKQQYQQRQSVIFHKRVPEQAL
Counter-ions that a name gives are not always drawn.
ASSAY_METRIC: log10 of Kb (log10 of the value in nM)
Scale type: logarithmic (base 10). Underlying Kb unit: nM.

Consider the following illustrative entries.
1) CC(C)N(CCC(c1ccccc1)c1cccs1)C(C)C (centres unmarked) [Example 48, hydrochloride]    1.49
2) Cc1ccc(O)c(C(CCN(C(C)C)C(C)C)c2cccs2)c1 (single isomer, unassigned) [Example 55]    0.30
3) c1ccc(C(CCN2CCCCC2)c2cccs2)cc1 (centres unmarked) [Example 53, hydrochloride]    2.19

// below: log10 of Kb requested for another compound
Fill blank: measured log10 of Kb of the compound Cn1cccc1C(CCN1CCCC1)c1ccccc1 (centres unmarked) [Example 60, fumarate] is ____.
2.85

###

Reported values of Kb for individual entries
biological target: muscarinic receptor (Cavia porcellus); construct: Smooth muscle strips of the urinary bladder were dissected in a Krebs-Henseleit solution; from tissue; host or cells: guinea pig urinary bladder smooth muscle strips; experiment: Functional in vitro studies: antagonism of carbachol-induced contraction of urinary bladder smooth muscle strips; format: cell-based, guinea pig; conditions: male guinea pig urinary bladder strips; carbachol agonist; 60 min incubation with antagonist; Krebs-Henseleit pH 7.4, 37° C.; KB from dose ratios (Schild); read-out: KB-value
Where a name gives a salt, the structure may show the parent alone.

1. CC(C)N(CC[C@H](c1ccccc1)c1cc(CCCN)ccc1O)C(C)C [Example 22, dihydrochloride]    2.8 nM
2. CC(C)N(CCC(c1cccs1)c1ccccc1O)C(C)C (stereo not shown) [Example 41, fumarate]    7.6 nM
3. CC(C)N(CC[C@H](c1ccccc1)c1cc(CCO)ccc1O)C(C)C [Example 12, hydrochloride]    1.18 nM
4. CC(C)N(CCc1ccc(O)c([C@H](CCN(C(C)C)C(C)C)c2ccccc2)c1)C(C)C [Example 18, hydrochloride]    172 nM
5. CC(C)N(CCC(c1cccs1)c1ccc(O)cc1O)C(C)C (stereo not shown)    286 nM
6. Cc1ccc(O)c(C(CCN(CCOCCO)C(C)C)c2ccccc2)c1 (stereo not shown) [Example 1, hydrochloride]    499 nM
7. CC(=O)c1ccc(O)c([C@H](CCN(C(C)C)C(C)C)c2ccccc2)c1 [Example 13, hydrochloride]    15 nM
8. CC(=O)NCCCc1ccc(O)c([C@H](CCN(C(C)C)C(C)C)c2ccccc2)c1 [Example 23, hydrochloride]    1.05 nM
9. CC(C)N(CC[C@H](c1ccccc1)c1cc(CCCO)ccc1O)C(C)C [Example 29, hydrochloride]    1.5 nM
10. CC(C)N(CCC(c1ccccc1)c1cncs1)C(C)C (stereo not shown) [Example 40, hydrochloride]    814 nM

Fill blank: measured Kb of the compound Cc1ccc(O)c(C(CCN(C)C2CCCCC2)c2ccccc2)c1 (stereo not shown) [Example 3, hydrochloride] is ____.
236 nM

One more compound: CC(C)N(CC[C@H](c1ccccc1)c1cc(N)ccc1O)C(C)C [Example 27, dihydrochloride]
7.1 nM

One more compound: c1ccc(C(CCN2CCCC2)c2cccs2)cc1 (stereo not shown) [Example 52, fumarate]
350 nM

One more compound: Cc1ccc(O)c(C(CCN(C(C)C)C(C)C)c2cccs2)c1 (single isomer, unassigned) [Example 56]
360 nM

One more compound: CC(C)N(CC[C@H](c1ccccc1)c1cc(CCC#N)ccc1O)C(C)C [Example 24, hydrochloride]
1.91 nM

One more compound: CC(C)N(CCC(c1ccccc1)c1ccccc1CO)C(C)C (stereo not shown) [Example 10, hydrochloride]
171 nM

###

biological target: muscarinic receptor (Cavia porcellus, UniProt H0W1Z3); construct: Smooth muscle strips of the urinary bladder were dissected in a Krebs-Henseleit solution; from tissue; host or cells: guinea pig urinary bladder smooth muscle strips; assay: Functional in vitro studies: antagonism of carbachol-induced contraction of urinary bladder smooth muscle strips; type: cell-based, guinea pig; conditions: male guinea pig urinary bladder strips; carbachol agonist; 60 min incubation with antagonist; Krebs-Henseleit pH 7.4, 37° C.; KB from dose ratios (Schild); read-out: KB-value
Where a name gives a salt, the structure may show the parent alone.
ASSAY_METRIC: Kb (nM)
Hi! Could you send only the number? It should be in nM, unit omitted.

Consider the following illustrative entries.
1. COC(=O)c1ccc(O)c([C@H](CCN(C(C)C)C(C)C)c2ccccc2)c1 [Example 9, hydrochloride]    3.8
2. CC(C)N(CCC(c1ccccc1)c1cccn1C)C(C)C (centres unmarked) [Example 59, fumarate]    690
3. CC(C)N(CC[C@@H](c1ccccc1)c1cc(CCO)ccc1O)C(C)C [Example 11, hydrochloride]    431

Fill blank: measured Kb of the compound CN(CCC(c1ccccc1)c1ccccc1O)C1CCCC1 (centres unmarked) [Example 32, hydrochloride] is ____.
36

One more compound: CC(C)N(CCC(c1ccccc1)c1ccccc1C(F)(F)F)C(C)C (centres unmarked) [Example 4, hydrochloride]
132

One more compound: CC(O)c1ccc(O)c([C@H](CCN(C(C)C)C(C)C)c2ccccc2)c1 (some centres unmarked) [Example 14, fumarate]
4.5

One more compound: CCN(CC)CCC(c1ccccc1)c1cccs1 (centres unmarked) [Example 50, fumarate]
154

One more compound: Cc1csc(C(CCN(C(C)C)C(C)C)c2ccccc2)n1 (centres unmarked) [Example 39, hydrochloride]
235

###

target: muscarinic receptor (Cavia porcellus, UniProt H0W1Z3); construct: Smooth muscle strips of the urinary bladder were dissected in a Krebs-Henseleit solution; from tissue; host or cells: guinea pig urinary bladder smooth muscle strips; assay: Functional in vitro studies: antagonism of carbachol-induced contraction of urinary bladder smooth muscle strips; format: cell-based, guinea pig; details: male guinea pig urinary bladder strips; carbachol agonist; 60 min incubation with antagonist; Krebs-Henseleit pH 7.4, 37° C.; KB from dose ratios (Schild); read-out: KB-value
Structures can show the parent of a compound that is named as a salt.
Reported values of Kb for individual entries
Hi! Could you send only the number? It should be in nM, unit omitted.

Consider the following illustrative entries.
1) CCOCc1ccc(O)c([C@H](CCN(C(C)C)C(C)C)c2ccccc2)c1 [Example 19]    2.9
2) COc1ccc(C(CCN(C(C)C)C(C)C)c2cccs2)c(OC)c1 (centres unmarked) [Example 44, fumarate]    2290
3) CC(C)N(CCC(c1ccccc1)c1ccccc1F)C(C)C (centres unmarked) [Example 6, hydrochloride]    10
4) COc1ccccc1C(CCN(C(C)C)C(C)C)c1cccs1 (centres unmarked) [Example 43]    29

// below: Kb requested for another compound
Fill blank: measured Kb of the compound COc1ccc(C(CCN(C(C)C)C(C)C)c2cccs2)cc1 (centres unmarked) [Example 46, hydrochloride] is ____.
286

###

molecular target: muscarinic receptor (Cavia porcellus); construct: Smooth muscle strips of the urinary bladder were dissected in a Krebs-Henseleit solution; from tissue; host or cells: guinea pig urinary bladder smooth muscle strips; assay: Functional in vitro studies: antagonism of carbachol-induced contraction of urinary bladder smooth muscle strips; format: cell-based, guinea pig; settings: male guinea pig urinary bladder strips; carbachol agonist; 60 min incubation with antagonist; Krebs-Henseleit pH 7.4, 37° C.; KB from dose ratios (Schild); read-out: KB-value
Where a name gives a salt, the structure may show the parent alone.
Reported values of log10 of Kb for individual entries
Scale type: logarithmic (base 10). Underlying Kb unit: µM.

Fill blank: measured log10 of Kb of the molecule CN(CCC(c1ccccc1)c1cccs1)C1CCCCC1 (centres unmarked) [Example 49, hydrochloride] is ____.
-0.23

One more molecule: COc1ccccc1C(CCN(C)C(C)C)c1cccs1 (centres unmarked) [Example 47, fumarate]
-1.04

###

target: muscarinic receptor (Cavia porcellus, UniProt H0W1Z3); construct: Smooth muscle strips of the urinary bladder were dissected in a Krebs-Henseleit solution; from tissue; host or cells: guinea pig urinary bladder smooth muscle strips; test: Functional in vitro studies: antagonism of carbachol-induced contraction of urinary bladder smooth muscle strips; format: cell-based, guinea pig; details: male guinea pig urinary bladder strips; carbachol agonist; 60 min incubation with antagonist; Krebs-Henseleit pH 7.4, 37° C.; KB from dose ratios (Schild); read-out: KB-value
Counter-ions that a name gives are not always drawn.
Reported values of log10 Kb for individual entries
Scale type: logarithmic (base 10). Underlying Kb unit: nM.

1. CC(C)N(CCC(c1ccccc1)c1cnco1)C(C)C (centres unmarked) [Example 35, hydrochloride]    3.25
2. CC(C)N(CCC(c1ccccc1)c1ccccc1N)C(C)C (centres unmarked) [Example 33, hydrochloride]    1.75
3. CC(C)N(C)CCC(c1ccccc1)c1cccs1 (centres unmarked) [Example 51, hydrochloride]    2.07
4. CC(C)N(CCC(c1ccccc1)c1nc2ccccc2o1)C(C)C (centres unmarked) [Example 34, hydrochloride]    2.90
5. CC(C)N(CC[C@H](c1ccccc1)c1cc(C=O)ccc1O)C(C)C [Example 7, hydrochloride]    1.11
6. CC(C)NCCC(c1ccccc1)c1cc(C(=O)O)ccc1O (centres unmarked) [Example 20, hydrochloride]    3.52
7. CC(C)N(CC[C@H](c1ccccc1)c1cc(N=[N+]=[N-])ccc1O)C(C)C [Example 28, hydrochloride]    0.93

// below: log10 Kb requested for another compound
What measured log10 Kb is associated with CC(C)N(CCC(c1ccccc1)c1ncco1)C(C)C (centres unmarked) [Example 37, hydrochloride] on muscarinic receptor (Cavia porcellus, UniProt H0W1Z3)?
2.72
